test system: ATXN3 Pre-mRNA (exon 4 skipping); assay: RT-qPCR Assay to Quantify Exon 4 Skipping in ATXN3 Pre-mRNA in Cells; type: cell-based; conditions: cells incubated with compound 24 h, normalised to GAPDH, 7-point concentration curve
pIC50: −log10 of the molar value.
# key: entry, value: pIC50
Endpoint name: pIC50

| Molecule | Endpoint value |
| --- | --- |
| Cc1c(C[C@H](C)N)sc2c(NCc3ccco3)nc(Cl)nc12 [Cpd 12] | ≥ 6.30 |
| Cc1c(C[C@H](C)N)sc2c(NCc3cncs3)nc(Cl)nc12 [Cpd 74] | 5.82 to 6.00 |
| Cc1c(C[C@H](C)N)sc2c(NCc3sccc3F)nc(Cl)nc12 [Cpd 90] | ≥ 6.30 |
| Cc1c(C[C@@H](N)CO)sc2c(NCc3cccs3)nc(Cl)nc12 [Cpd 56] | ≥ 6.30 |
| Cc1c(C[C@H](C)N)sc2c(NCc3c(F)cncc3F)nc(Cl)nc12 [Cpd 64] | 6.00 to 6.30 |
| CCc1c(C[C@H](C)N)sc2c(NCc3ccco3)nc(Cl)nc12 [Cpd 77] | ≥ 6.30 |
| Cc1c(C[C@H](C)NC2CCC2)sc2c(NCc3ccco3)nc(Cl)nc12 [Cpd 78] | 5.82 to 6.00 |
| Cc1c(C[C@H](C)N)sc2c(NCc3nccs3)nc(Cl)nc12 [Cpd 29] | ≥ 6.30 |
| C[C@H](N)Cc1sc2c(NCc3ccco3)nc(Cl)nc2c1Br [Cpd 40] | ≥ 6.30 |
| C[C@H](N)Cc1sc2c(NCc3cccs3)nc(Cl)nc2c1Br [Cpd 82] | ≥ 6.30 |
